Catalogue of molecules with associated MIC (μg/mL) MSSA
# System: Methicillin-Sensitive S. aureus (Newman)
# Format: cell-based, Staphylococcus aureus
# test conditions: Newman
# Protocol: Bacillus subtilis subsp. spizizenii (ATCC 6633) and Streptomyces himastatinicus (ATCC 53653) were obtained from the American Type Culture Collection (ATCC). […] Minimum inhibitory concentration (MIC) was determined using the broth microdilution method. […]
Express it in µg/mL; write the number only.

molecule	assay endpoint	recorded measurement
CC(C)[C@@H]1OC(=O)[C@@H](C(C)C)NC(=O)[C@@H]2C[C@@]3(O)c4cc(-c5ccc6c(c5)[C@]5(O)C[C@H]7C(=O)N[C@H](C(C)C)C(=O)O[C@@H](C(C)C)C(=O)N8NC[C@H](O)C[C@@H]8C(=O)N[C@@H](CCCCN=[N+]=[N-])C(=O)N[C@H]([C@H](C)O)C(=O)N7[C@@H]5N6)ccc4N[C@H]3N2C(=O)[C@@H]([C@H](C)O)NC(=O)[C@H](CCCCN=[N+]=[N-])NC(=O)[C@H]2C[C@@H](O)CNN2C1=O [(−)-32, Himastatin ε-Azidolysine Derivative]	MIC (μg/mL) MSSA	1

Turning to the following molecule.
*Q* Fill in the blank: the reported MIC (μg/mL) MSSA of CC(C)C[C@@H]1NC(=O)[C@H]2C[C@@H](O)CNN2C(=O)[C@H](C(C)C)NC(=O)[C@@H](C(C)C)NC(=O)[C@@H]2C[C@@]3(O)c4cc(-c5ccc6c(c5)[C@]5(O)C[C@H]7C(=O)N[C@H](C(C)C)C(=O)N[C@@H](C(C)C)C(=O)N8NC[C@H](O)C[C@@H]8C(=O)N[C@@H](CC(C)C)C(=O)N[C@H]([C@H](C)O)C(=O)N7[C@@H]5N6)ccc4N[C@H]3N2C(=O)[C@@H]([C@H](C)O)NC1=O [(−)-26, Himastatin Lactam Derivative] is ____.
*A* 16

----------
# Tested on: Vancomycin-Sensitive E. faecalis (T7)
# Assay type: cell-based, Enterococcus faecalis
# test conditions: Vancomycin-Sensitive (T7)
Numbered stars: 1 amine (or outer) side, 2 acyl side, 3 side chain; on linkers, the order of the positions; unused ones are H or OH. Square brackets hold non-standard residues; d marks the D form. Peptide text beside a SMILES is read from it. X1 = O=C([C@@H]1C[C@@]2(O)c3ccccc3N[C@H]2N1[*:1])[*:2]; dPiz(5R-OH) = O=C(O)[C@H]1C[C@@H](O)CNN1; NMeV = CN[C@H](C(=O)O)C(C)C
assay endpoint: MIC (μg/mL) VSE faecalis

molecule	target under test	MIC (μg/mL) VSE faecalis
CC(C)C[C@@H]1NC(=O)[C@H]2C[C@@H](O)CNN2C(=O)[C@H](C(C)C)N(C)C(=O)[C@@H](C(C)C)NC(=O)[C@@H]2C[C@@]3(O)c4ccccc4N[C@H]3N2C(=O)[C@@H]([C@H](C)O)NC1=O [(+)-27, N-Methyl Cyclic Hexapeptide] (cyclo(L[dT][X1][dV][NMeV][dPiz(5R-OH)]))	Vancomycin-Sensitive E. faecalis (T7)	>64 µg/mL
CC(C)C[C@@H]1NC(=O)[C@H]2C[C@@H](O)CNN2C(=O)[C@H](C(C)C)N(C)C(=O)[C@@H](C(C)C)NC(=O)[C@@H]2C[C@@]3(O)c4cc(-c5ccc6c(c5)[C@]5(O)C[C@H]7C(=O)N[C@H](C(C)C)C(=O)N(C)[C@@H](C(C)C)C(=O)N8NC[C@H](O)C[C@@H]8C(=O)N[C@@H](CC(C)C)C(=O)N[C@H]([C@H](C)O)C(=O)N7[C@@H]5N6)ccc4N[C@H]3N2C(=O)[C@@H]([C@H](C)O)NC1=O [(−)-28, Himastatin N-Methyl Lactam Derivative]	Vancomycin-Sensitive E. faecalis (T7)	>64 µg/mL

Now for the molecule whose MIC (μg/mL) VSE faecalis we want.
*Q* For the record CC(C)C[C@@H]1NC(=O)[C@H]2CCCN2C(=O)[C@H](C(C)C)OC(=O)[C@@H](C(C)C)NC(=O)[C@@H]2C[C@@]3(O)c4cc(-c5ccc6c(c5)[C@]5(O)C[C@H]7C(=O)N[C@H](C(C)C)C(=O)O[C@@H](C(C)C)C(=O)N8CCC[C@@H]8C(=O)N[C@@H](CC(C)C)C(=O)N[C@H]([C@H](C)O)C(=O)N7[C@@H]5N6)ccc4N[C@H]3N2C(=O)[C@@H]([C@H](C)O)NC1=O [(−)-30, Himastatin Proline Derivative] , what value of MIC (μg/mL) VSE faecalis is listed for Vancomycin-Sensitive E. faecalis (T7)?
*A* >64 µg/mL

----------
The following molecules are listed with their measured MIC (μg/mL) B. subtilis values.
# Tested on: Bacillus subtilis (ATCC 6633)
# Format: cell-based
# test conditions: ATCC 6633
Numbered stars: 1 amine (or outer) side, 2 acyl side, 3 side chain; on linkers, the order of the positions; unused ones are H or OH. Square brackets hold non-standard residues; d marks the D form. Peptide text beside a SMILES is read from it. X1 = O=C([C@@H]1C[C@@]2(O)c3ccccc3N[C@H]2N1[*:1])[*:2]; X2 = O=C([C@H]1C[C@]2(O)c3ccccc3N[C@@H]2N1[*:1])[*:2]; X3 = O=C([C@@H]1C[C@H](O)CNN1[*:1])[*:2]; dPiz(5R-OH) = O=C(O)[C@H]1C[C@@H](O)CNN1; dHiv = CC(C)[C@@H](O)C(=O)O

*Q* Returns the measured MIC (μg/mL) B. subtilis for the input molecule. Input: CC(C)C[C@H]1NC(=O)[C@@H]2C[C@H](O)CNN2C(=O)[C@@H](C(C)C)OC(=O)[C@H](C(C)C)NC(=O)[C@H]2C[C@]3(O)c4ccccc4N[C@@H]3N2C(=O)[C@H]([C@@H](C)O)NC1=O [(−)-6, ent-himastatin monomer] (cyclo([dL]T[X2]V[dHiv][X3]))
*A* >64 µg/mL

*Q* For the molecule shown here, CC(C)C[C@@H]1NC(=O)[C@H]2C[C@@H](O)CNN2C(=O)[C@H](C(C)C)NC(=O)[C@@H](C(C)C)NC(=O)[C@@H]2C[C@@]3(O)c4ccccc4N[C@H]3N2C(=O)[C@@H]([C@H](C)O)NC1=O [(+)-25, Cyclic Hexapeptide] (cyclo(L[dT][X1][dV]V[dPiz(5R-OH)])) , give the reported MIC (μg/mL) B. subtilis.
*A* >64 µg/mL

----------
MIC (μg/mL) MSSA listing for selected compounds.
# System: Methicillin-Sensitive S. aureus (Newman)
# Type: cell-based, Staphylococcus aureus
# test conditions: Newman
Numbered stars: 1 amine (or outer) side, 2 acyl side, 3 side chain; on linkers, the order of the positions; unused ones are H or OH. Square brackets hold non-standard residues; d marks the D form. Peptide text beside a SMILES is read from it. X1 = O=C([C@@H]1C[C@@]2(O)c3ccccc3N[C@H]2N1[*:1])[*:2]; dPiz(5R-OH) = O=C(O)[C@H]1C[C@@H](O)CNN1; Hiv = CC(C)[C@H](O)C(=O)O

compound	assay endpoint	recorded measurement
CC(C)C[C@@H]1NC(=O)[C@H]2C[C@@H](O)CNN2C(=O)[C@H](C(C)C)OC(=O)[C@@H](C(C)C)NC(=O)[C@@H]2C[C@@]3(O)c4ccccc4N[C@H]3N2C(=O)[C@@H]([C@H](C)O)NC1=O [(+)-6, Himastatin Monomer, reference compound] (cyclo([Hiv][dPiz(5R-OH)]L[dT][X1][dV]))	MIC (μg/mL) MSSA	>64 µg/mL

As a next step, examine the compound that follows.
*Q* What does the data say about its MIC (μg/mL) MSSA? Entry: CC(C)C[C@@H]1NC(=O)[C@H]2C[C@@H](O)CNN2C(=O)[C@H](C(C)C)NC(=O)[C@@H](C(C)C)NC(=O)[C@@H]2C[C@@]3(O)c4ccccc4N[C@H]3N2C(=O)[C@@H]([C@H](C)O)NC1=O [(+)-25, Cyclic Hexapeptide] (cyclo(L[dT][X1][dV]V[dPiz(5R-OH)]))
*A* >64 µg/mL

----------
# Test system: Bacillus subtilis (ATCC 6633)
# Format: cell-based
# test conditions: ATCC 6633
Numbered stars: 1 amine (or outer) side, 2 acyl side, 3 side chain; on linkers, the order of the positions; unused ones are H or OH. Square brackets hold non-standard residues; d marks the D form. Peptide text beside a SMILES is read from it. X1 = O=C([C@@H]1C[C@@]2(O)c3ccccc3N[C@H]2N1[*:1])[*:2]; dPiz(5R-OH) = O=C(O)[C@H]1C[C@@H](O)CNN1; Lys(N3) = [N-]=[N+]=NCCCC[C@H](N)C(=O)O; NMeV = CN[C@H](C(=O)O)C(C)C; Hiv = CC(C)[C@H](O)C(=O)O
MIC (μg/mL) B. subtilis values, listed per item

A selection of reference data follows.
molecule	recorded measurement
CC(C)C[C@@H]1NC(=O)[C@H]2C[C@@H](O)CNN2C(=O)[C@H](C(C)C)OC(=O)[C@@H](C(C)C)NC(=O)[C@@H]2C[C@@]3(O)c4ccccc4N[C@H]3N2C(=O)[C@@H]([C@H](C)O)NC1=O [(+)-6, Himastatin Monomer, reference compound] (cyclo([Hiv][dPiz(5R-OH)]L[dT][X1][dV]))	>64 µg/mL
CC(C)[C@@H]1OC(=O)[C@@H](C(C)C)NC(=O)[C@@H]2C[C@@]3(O)c4cc(-c5ccc6c(c5)[C@]5(O)C[C@H]7C(=O)N[C@H](C(C)C)C(=O)O[C@@H](C(C)C)C(=O)N8NC[C@H](O)C[C@@H]8C(=O)N[C@@H](CCCCN=[N+]=[N-])C(=O)N[C@H]([C@H](C)O)C(=O)N7[C@@H]5N6)ccc4N[C@H]3N2C(=O)[C@@H]([C@H](C)O)NC(=O)[C@H](CCCCN=[N+]=[N-])NC(=O)[C@H]2C[C@@H](O)CNN2C1=O [(−)-32, Himastatin ε-Azidolysine Derivative]	2 µg/mL
CC(C)[C@@H]1OC(=O)[C@@H](C(C)C)NC(=O)[C@@H]2C[C@@]3(O)c4ccccc4N[C@H]3N2C(=O)[C@@H]([C@H](C)O)NC(=O)[C@H](CCCCN=[N+]=[N-])NC(=O)[C@H]2C[C@@H](O)CNN2C1=O [(+)-31, Azido Cyclic Depsihexapeptide] (cyclo([Hiv][dPiz(5R-OH)][Lys(N3)][dT][X1][dV]))	>64 µg/mL
CC(C)C[C@@H]1NC(=O)[C@H]2C[C@@H](O)CNN2C(=O)[C@H](C(C)C)N(C)C(=O)[C@@H](C(C)C)NC(=O)[C@@H]2C[C@@]3(O)c4ccccc4N[C@H]3N2C(=O)[C@@H]([C@H](C)O)NC1=O [(+)-27, N-Methyl Cyclic Hexapeptide] (cyclo(L[dT][X1][dV][NMeV][dPiz(5R-OH)]))	>64 µg/mL

*Q* Need MIC (μg/mL) B. subtilis of CC(C)C[C@@H]1NC(=O)[C@H]2CCCN2C(=O)[C@H](C(C)C)OC(=O)[C@@H](C(C)C)NC(=O)[C@@H]2C[C@@]3(O)c4cc(-c5ccc6c(c5)[C@]5(O)C[C@H]7C(=O)N[C@H](C(C)C)C(=O)O[C@@H](C(C)C)C(=O)N8CCC[C@@H]8C(=O)N[C@@H](CC(C)C)C(=O)N[C@H]([C@H](C)O)C(=O)N7[C@@H]5N6)ccc4N[C@H]3N2C(=O)[C@@H]([C@H](C)O)NC1=O [(−)-30, Himastatin Proline Derivative] , thanks.
*A* >64 µg/mL
